tested.target: PD-1/PD-L1 interaction (Homo sapiens, UniProt Q9NZQ7)
Construct: expressed in transfected cells; host or cells: CHO cells (aAPC-PD-L1) co-cultured with Jurkat cells overexpressing PD-1 and an NFAT-luciferase reporter
Sequence (Q9NZQ7 19-290): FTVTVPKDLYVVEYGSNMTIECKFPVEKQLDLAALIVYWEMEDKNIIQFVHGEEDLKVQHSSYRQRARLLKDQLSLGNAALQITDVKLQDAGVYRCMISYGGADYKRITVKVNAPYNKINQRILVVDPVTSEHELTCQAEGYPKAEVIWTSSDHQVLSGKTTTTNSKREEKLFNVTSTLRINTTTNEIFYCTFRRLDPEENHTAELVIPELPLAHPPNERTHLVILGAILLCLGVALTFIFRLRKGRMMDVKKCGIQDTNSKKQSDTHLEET
protocol.description: PD-1/PD-L1 NFAT reporter co-culture assay
Type: cell-based
measurement.setup: Jurkat PD-1 NFAT-luciferase cells co-cultured with aAPC-PD-L1 CHO cells, 6 hrs at 37° C.; read-out: EC50 NFAT Luciferase
pEC50: −log10 of the molar value.
// reported pEC50 for each item listed
assay.endpoint: pEC50

>>> experimental_value("N#Cc1cc(C#N)cc(COc2nc(OCc3cccc(-c4cccc(-c5ccc(OCCN6CC7(CCC(=O)N7)C6)cc5)c4Cl)c3Cl)c(Cl)cc2CNC[C@@H](O)CC(=O)O)c1")
6.95
>>> experimental_value("Cc1c(COc2ccc(CNCCO)cc2Cl)cccc1-c1cccc(COc2cc(OCc3cncc(C#N)c3)c(CNCCO)cc2Cl)c1C")
5.99
>>> experimental_value("CNC(=O)CCOc1nc(OCc2cccc(-c3cccc(COc4nc(OCCC(=O)NC)c(CNC[C@@H](O)CC(=O)O)cc4Cl)c3C)c2C)c(Cl)cc1CNC[C@@H](O)CC(=O)O")
6.18
>>> experimental_value("COc1nc(O[C@H]2CCc3c(-c4cccc(-c5cnc(CNC[C@@H]6CCC(=O)N6)c(OC)n5)c4Cl)cccc32)c(Cl)cc1CNC[C@@H]1CCC(=O)N1")
7.23
>>> experimental_value("Cc1c(COc2nc(OC[C@@H]3CCC(=O)N3)c(CNCC(=O)O)cc2Br)cccc1-c1cccc(COc2nc(OC[C@@H]3CCC(=O)N3)c(CNCC(=O)O)cc2Br)c1C")
6.79
>>> experimental_value("COc1nc(OCc2cccc(-c3cccc(COc4nc(OC)c(CNCC(=O)O)cc4Cl)c3C)c2C)c(Cl)cc1CNCC(=O)O")
6.94
>>> experimental_value("Cc1c(COc2cc(OCc3cncc(C#N)c3)c(CN3CC[C@@H](O)C3)cc2Cl)cccc1-c1cccc(-c2ccc3c(c2)CCC3N2CC[C@@H](C(=O)O)C2)c1C (some centres unmarked)")
6.24
>>> experimental_value("Cc1c(COc2cc(O)c(CNC[C@@H](O)CC(=O)O)cc2Cl)cccc1-c1cccc(COc2cc(OCc3cncc(C#N)c3)c(CNC[C@@H](O)CC(=O)O)cc2Cl)c1C")
5.88
>>> experimental_value("COc1nc(OCc2cccc(-c3cccc(COc4nc(OC)c(CNC[C@@H](O)CC(=O)O)cc4I)c3C)c2C)c(I)cc1CNC[C@@H](O)CC(=O)O")
6.56
>>> experimental_value("COc1nc(-c2cccc(-c3cccc4c3CC[C@@H]4Oc3nc(OC)c(CN4CC(C(=O)O)C4)cc3Cl)c2Cl)ccc1CNC[C@@H]1CCC(=O)N1")
7.82

====

tested.target: PD-1/PD-L1 (Homo sapiens)
Sequence (Q9NZQ7 19-238 limits assumed): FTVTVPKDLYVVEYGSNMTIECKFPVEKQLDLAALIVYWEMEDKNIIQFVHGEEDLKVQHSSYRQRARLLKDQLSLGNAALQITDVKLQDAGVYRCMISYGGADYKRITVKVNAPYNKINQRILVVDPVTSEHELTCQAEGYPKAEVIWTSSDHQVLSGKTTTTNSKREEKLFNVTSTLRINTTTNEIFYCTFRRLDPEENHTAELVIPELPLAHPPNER
protocol.description: PD-1/PD-L1 biochemical protein-protein interaction assay (ALPHA)
measurement.setup: 0.3 nM His tagged PD-L1, 2.5 nM biotinylated Fc-PD-1, 60 minutes at 25° C., read-out: IC50 PD-L1-PD-1 Alpha IC50-mono PD-L1-fcP-D1
// reported IC50 for each item listed
assay.endpoint: IC50 (nM)

>>> experimental_value("COc1cc(-c2cccc(-c3cccc(COc4cc(OCc5cncc(C#N)c5)c(CNC[C@@H](O)CC(=O)O)cc4Cl)c3C)c2C)ccc1CN [Example 507]")
0.693
>>> experimental_value("N#Cc1cncc(COc2nc(O[C@H]3CCc4c(-c5cccc(-c6ccc(OCCNCCO)cc6)c5Cl)cccc43)c(Br)cc2CNC[C@@H](O)CC(=O)O)c1 [Example 662]")
0.139
>>> experimental_value("COc1ccc2cc(-c3cccc(-c4cccc(COc5cc(OCc6cncc(C#N)c6)c(CNC[C@@H](O)CC(=O)O)cc5Cl)c4C)c3C)ccc2c1CNC[C@@H](O)CC(=O)O [Example 468]")
0.558
>>> experimental_value("Cc1c(COc2cc(OCc3cncc(C#N)c3)c(CNCCO)cc2Cl)cccc1-c1cccc(COc2cc(OCc3cncc(C#N)c3)c(CNCCO)cc2Cl)c1C [Example 68]")
10.3
>>> experimental_value("Cc1c(COc2cc(OCc3cncc(C#N)c3)c(CN[C@@](C)(CO)C(=O)O)cc2Cl)cccc1-c1cccc(-c2ccc(CNCCn3ccnn3)cc2)c1C [Example 580]")
0.215
>>> experimental_value("CCOC(=O)CNCc1cc(Cl)c(O[C@H]2CCc3c(-c4cccc5c4CC[C@@H]5Oc4nc(OC)c(CNCC(=O)OCC)cc4Cl)cccc32)nc1OC [Example 287]")
457
